conditions: 343.15 K; 10000 kPa; Liquid
± gives the expanded uncertainty stated by the source.
quantity_measured: mass density
Hi, when you answer, please include the unit after the number. Thanks!

The examples below pair each entry with its known result.
# compound, mass density
records = [
    ("CCCCCCCCn1cc[n+](C)c1.O=S(=O)([N-]S(=O)(=O)C(F)(F)F)C(F)(F)F", "1286 ± 4 kg/m3"),
    ("CCn1cc[n+](C)c1.F[B-](F)(F)F [1-ethyl-3-methylimidazolium tetrafluoroborate]", "1269 ± 3 kg/m3"),
    ("CCCCCCCn1cc[n+](C)c1.O=S(=O)([N-]S(=O)(=O)C(F)(F)F)C(F)(F)F", "1312 ± 4 kg/m3"),
]

Give its mass density value. Item: `CCn1cc[n+](C)c1.O=S(=O)([N-]S(=O)(=O)C(F)(F)F)C(F)(F)F` 1480 ± 5 kg/m3

====

details: 303.15 K; 15000 kPa; Liquid
quantity_measured: mass density (kg/m3)
Answers are plain numbers, in kg/m3.

The examples below pair each entry with its known result.
# compound, mass density, kg/m3
rows = [
    ("CCn1cc[n+](C)c1.O=S(=O)([N-]S(=O)(=O)C(F)(F)F)C(F)(F)F", 1525),
    ("CCn1cc[n+](C)c1.F[B-](F)(F)F [1-ethyl-3-methylimidazolium tetrafluoroborate]", 1303),
    ("CCCCCCCCn1cc[n+](C)c1.O=S(=O)([N-]S(=O)(=O)C(F)(F)F)C(F)(F)F", 1326),
]

Give its mass density value. Item: `CCCCCCCn1cc[n+](C)c1.O=S(=O)([N-]S(=O)(=O)C(F)(F)F)C(F)(F)F` 1353

====

settings: 343.15 K; 7500 kPa; Liquid
Assignment: determine reported mass density for the given molecules.
Numbers only, in kg/m3.

# molecule, quantity_measured, quantity_unit, numeric_result
records = [
    ("CCCCCCCCn1cc[n+](C)c1.O=S(=O)([N-]S(=O)(=O)C(F)(F)F)C(F)(F)F", "mass density", "kg/m3", 1284),
    ("CCCCCCCn1cc[n+](C)c1.O=S(=O)([N-]S(=O)(=O)C(F)(F)F)C(F)(F)F", "mass density", "kg/m3", 1310),
    ("CCn1cc[n+](C)c1.F[B-](F)(F)F [1-ethyl-3-methylimidazolium tetrafluoroborate]", "mass density", "kg/m3", 1268),
]

Please find the next molecule below.
Give its mass density value. Item: `CCn1cc[n+](C)c1.O=S(=O)([N-]S(=O)(=O)C(F)(F)F)C(F)(F)F` 1478

====

conditions: 333.15 K; 10000 kPa; Liquid
quantity_measured: mass density (kg/m3)
Numbers only, in kg/m3.

The examples below pair each entry with its known result.
# compound, mass density / kg/m3
data = [
    ("CCn1cc[n+](C)c1.F[B-](F)(F)F [1-ethyl-3-methylimidazolium tetrafluoroborate]", 1277),
    ("CCCCCCCn1cc[n+](C)c1.O=S(=O)([N-]S(=O)(=O)C(F)(F)F)C(F)(F)F", 1321),
    ("CCCCCCCCn1cc[n+](C)c1.O=S(=O)([N-]S(=O)(=O)C(F)(F)F)C(F)(F)F", 1294),
]

Please find the next compound below.
Give its mass density value. Item: `CCn1cc[n+](C)c1.O=S(=O)([N-]S(=O)(=O)C(F)(F)F)C(F)(F)F` 1490

====

conditions: 343.15 K; 1000 kPa; Liquid
quantity_measured: mass density (kg/m3)
Numbers only, in kg/m3.

The examples below pair each entry with its known result.
# compound, quantity_measured, numeric_result
rows = [
    ("CCCCCCCn1cc[n+](C)c1.O=S(=O)([N-]S(=O)(=O)C(F)(F)F)C(F)(F)F", "mass density", 1304),
    ("CCCCCCCCn1cc[n+](C)c1.O=S(=O)([N-]S(=O)(=O)C(F)(F)F)C(F)(F)F", "mass density", 1278),
    ("CCn1cc[n+](C)c1.F[B-](F)(F)F [1-ethyl-3-methylimidazolium tetrafluoroborate]", "mass density", 1265),
]

Give its mass density value. Item: `CCn1cc[n+](C)c1.O=S(=O)([N-]S(=O)(=O)C(F)(F)F)C(F)(F)F` 1472

====

conditions: 323.15 K; 1000 kPa; Liquid
Assignment: determine reported mass density for the given molecules.
Numbers only, in kg/m3.

The examples below pair each entry with its known result.
# molecule, quantity_measured, numeric_result
measured = [
    ("CCn1cc[n+](C)c1.O=S(=O)([N-]S(=O)(=O)C(F)(F)F)C(F)(F)F", "mass density", 1493),
    ("CCn1cc[n+](C)c1.F[B-](F)(F)F [1-ethyl-3-methylimidazolium tetrafluoroborate]", "mass density", 1280),
    ("CCCCCCCCn1cc[n+](C)c1.O=S(=O)([N-]S(=O)(=O)C(F)(F)F)C(F)(F)F", "mass density", 1296),
]

Give its mass density value. Item: `CCCCCCCn1cc[n+](C)c1.O=S(=O)([N-]S(=O)(=O)C(F)(F)F)C(F)(F)F` 1323

====

conditions: 343.15 K; 25000 kPa; Liquid
Assignment: determine reported mass density for the given molecules.
One number for each entry, in kg/m3.

The examples below pair each entry with its known result.
# molecule, numeric_result
data = [
    ("CCCCCCCn1cc[n+](C)c1.O=S(=O)([N-]S(=O)(=O)C(F)(F)F)C(F)(F)F", 1324),
    ("CCn1cc[n+](C)c1.F[B-](F)(F)F [1-ethyl-3-methylimidazolium tetrafluoroborate]", 1277),
    ("CCn1cc[n+](C)c1.O=S(=O)([N-]S(=O)(=O)C(F)(F)F)C(F)(F)F", 1492),
]

Give its mass density value. Item: `CCCCCCCCn1cc[n+](C)c1.O=S(=O)([N-]S(=O)(=O)C(F)(F)F)C(F)(F)F` 1298

====

conditions: 303.15 K; 4000 kPa; Liquid
Assignment: determine reported mass density for the given molecules.
One number for each entry, in kg/m3.

# molecule, quantity_unit, mass density
records = [
    ("CCCCCCCn1cc[n+](C)c1.O=S(=O)([N-]S(=O)(=O)C(F)(F)F)C(F)(F)F", "kg/m3", 1345),
    ("CCn1cc[n+](C)c1.O=S(=O)([N-]S(=O)(=O)C(F)(F)F)C(F)(F)F", "kg/m3", 1517),
    ("CCCCCCCCn1cc[n+](C)c1.O=S(=O)([N-]S(=O)(=O)C(F)(F)F)C(F)(F)F", "kg/m3", 1318),
]

Give its mass density value. Item: CCn1cc[n+](C)c1.F[B-](F)(F)F [1-ethyl-3-methylimidazolium tetrafluoroborate] 1298

====

conditions: 353.15 K; 30000 kPa; Liquid
Numbers after ± are expanded uncertainties.
Assignment: determine reported mass density for the given compounds.

The examples below pair each entry with its known result.
# compound, mass density
data = [
    ("CCCCCCCn1cc[n+](C)c1.O=S(=O)([N-]S(=O)(=O)C(F)(F)F)C(F)(F)F", "1320 ± 6 kg/m3"),
    ("CCn1cc[n+](C)c1.F[B-](F)(F)F [1-ethyl-3-methylimidazolium tetrafluoroborate]", "1272 ± 4 kg/m3"),
    ("CCn1cc[n+](C)c1.O=S(=O)([N-]S(=O)(=O)C(F)(F)F)C(F)(F)F", "1487 ± 8 kg/m3"),
]

Please find the next compound below.
Give its mass density value. Item: `CCCCCCCCn1cc[n+](C)c1.O=S(=O)([N-]S(=O)(=O)C(F)(F)F)C(F)(F)F` 1294 ± 5 kg/m3

====

settings: 323.15 K; 25000 kPa; Liquid
quantity_measured: mass density (kg/m3)
Numbers only, in kg/m3.

The examples below pair each entry with its known result.
# compound, mass density [kg/m3]
rows = [
    ("CCCCCCCCn1cc[n+](C)c1.O=S(=O)([N-]S(=O)(=O)C(F)(F)F)C(F)(F)F", 1315),
    ("CCCCCCCn1cc[n+](C)c1.O=S(=O)([N-]S(=O)(=O)C(F)(F)F)C(F)(F)F", 1342),
    ("CCn1cc[n+](C)c1.O=S(=O)([N-]S(=O)(=O)C(F)(F)F)C(F)(F)F", 1512),
]

Please find the next compound below.
Give its mass density value. Item: CCn1cc[n+](C)c1.F[B-](F)(F)F [1-ethyl-3-methylimidazolium tetrafluoroborate] 1291

====

settings: 353.15 K; 15000 kPa; Liquid
quantity_measured: mass density (kg/m3)
One number for each entry, in kg/m3.

Respectfully, I request mass density for each entry included below.
1. CCn1cc[n+](C)c1.O=S(=O)([N-]S(=O)(=O)C(F)(F)F)C(F)(F)F
2. CCn1cc[n+](C)c1.F[B-](F)(F)F [1-ethyl-3-methylimidazolium tetrafluoroborate]
3. CCCCCCCn1cc[n+](C)c1.O=S(=O)([N-]S(=O)(=O)C(F)(F)F)C(F)(F)F
4. CCCCCCCCn1cc[n+](C)c1.O=S(=O)([N-]S(=O)(=O)C(F)(F)F)C(F)(F)F

1: 1474; 2: 1264; 3: 1308; 4: 1282
